Ref: PubChem BioAssay

test: fission yeast growth modulation, primary screen, strain 972, OD600, 24 h, no modulator (AID 1090);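 note: basal condition with compound alone and no growth modifier present; test concentration not given here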; conditions: S. pombe 972 growth, higher = more signal, called active from +8 up or from −8 down
reported-endpoint: z-score
Write the number on its own, no unit after it.

# example entries with known answers
compound="CC1(C)OCC(C(O)C2=CCCCC2=O)CO1 (stereo not drawn)" reported=-0.0255
compound=Cc1cc2c(c(=O)o1)[C@H](O)[C@H]1O[C@H]1C2=O reported=-4.24
compound="COCCNC(=O)OCC1CCCC2(CC(OC(=O)NCCc3ccc(F)cc3)CC(CCC(=O)N[C@@H](C)C(=O)OC)O2)O1 (stereo partly drawn)" reported=-0.0142
compound="c1ccc(C2NCCc3c2[nH]c2ccccc32)cc1 (stereo not drawn)" reported=-2.36
compound=CC(C)NC(=O)[C@@]1(c2ccc([N+](=O)[O-])cc2)CC(=O)N(CC23CC4CC(CC(C4)C2)C3)[C@@H]1c1ccc(CO)cc1I reported=0.168
compound=O=C1O[C@@H](c2ccccc2)[C@@H](c2ccccc2)N2[C@@H](c3ccc(OCCO)cc3)[C@]3(C(=O)Nc4ccccc43)[C@@H](C(=O)N3CCN(c4ncccn4)CC3)[C@H]12 reported=1.4
compound=CC(C)CN1CCc2nc(-c3ccccc3)c3c(c2CC1)CO[C@@H](C)C3 reported=-0.327

Kindly consider the entry below.
### Prompt # lookup: z-score of O=C1C[C@@H](O)[C@@H](O)[C@@H]2[C@@H]3C(=O)N(C4CCCCC4)C(=O)[C@@H]3CC[C@H]12
### Response -0.268

###

Below, each of the compounds is paired with its reported composite z-score value.
molecular target: Concanavalin-A (Canavalia ensiformis); assay: ConA small-molecule binders, primary screen, artefact control for SMM control protein annotation, biochemical, small-molecule microarray, Alexa647 label, 635 nm (AID 1127); conditions: ConA-A647 binding fluorescence, higher = more signal;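 note: z combines 667 nm emission intensity with signal-to-noise across three replicate slides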
Write the number on its own, no unit after it.

compound=COc1ccc(O[C@H]2C=C[C@@H](c3ccccc3)O[C@@H]2CON=C[C@@H](C)[C@H](OCc2ccccc2)C(C)C)cc1 reported=-0.409
compound=CCOC(=O)CCN1C(=O)[C@H]2[C@H]3[C@H](O)[C@H](O)CC(=NOC[C@@H](O)COCc4ccco4)[C@H]3CC[C@H]2C1=O reported=0.66

### Prompt # lookup: composite z-score of CC(CCC(=O)OC[C@H]1O[C@H](C#Cc2ccccc2)C=C[C@@H]1Oc1ccc(C)cc1)=NOC[C@@H](O)[C@H]1O[C@@H]2OC(C)(C)O[C@@H]2[C@H]1O
### Response -0.614

### Prompt # lookup: composite z-score of COC(=O)[C@H](C)NC(=O)CCC1CC(OC(=O)NCc2cccc3ccccc23)CC2(CCCC(COC(=O)NCC3CCCCC3)O2)O1 (some centres not stated)
### Response 1.12

###

Below, each of the compounds is paired with its reported z-score value.
experiment: modulators of HCV replicon luciferase signal, primary screen, HCV replication inhibitor project, Huh7 cells, luciferase reporter (AID 1109); conditions: 48 h, higher = more signal;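 note: huh7 hepatoma cells harbouring a luciferase neomycin HCV replicon reporter; luciferase luminescence as measure of HCV replicon replication; test concentration not given here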
Write the number on its own, no unit after it.

compound=CCc1cc2c(nc1CC)CCN(CCC(C)=NOC[C@@H](O)[C@H]1O[C@@H]3OC(C)(C)O[C@@H]3[C@H]1O)C2 reported_endpoint=z-score reported=-1.59

### Prompt # lookup: z-score of C=CC[C@@H]1C=C[C@H](ON=Cc2ccc(C(=O)N3[C@H](c4ccc(C)cc4)[C@@H](C)CC[C@H]3C(=O)OC)cc2)[C@@H](CO)O1
### Response -1.52

### Prompt # lookup: z-score of COc1ccc(COC(=O)NN=C2C[C@@H](O)[C@@H](O)[C@@H]3[C@@H]4C(=O)N(c5ccc(F)cc5F)C(=O)[C@@H]4CC[C@@H]23)cc1
### Response -0.76

### Prompt # lookup: z-score of C[N+](C)(C)CCCCCCNC(=O)[C@@H]1C[C@@H]2C(=O)N3CCC[C@H]3C(=O)N2[C@@H]1c1cccc(OCCO)c1
### Response 1.41

### Prompt # lookup: z-score of C[C@@H](c1ccccc1)N1C(=O)[C@H]2[C@H]3[C@H](O)C=CC(=O)[C@@H]3CC[C@H]2C1=O
### Response -1.73

### Prompt # lookup: z-score of CC(C)OC(=O)C=C1C[C@@H](c2ccc(C#N)cc2)O[C@@H](c2ccc(C#N)cc2)O1
### Response -2.19

### Prompt # lookup: z-score of CC(C)=NOCc1ccc(-c2cc(-c3ccccc3)no2)cc1
### Response -0.115

### Prompt # lookup: z-score of CCOC(=O)[C@H](Cc1ccccc1)NC(=O)CCC1CC(OC(=O)NCc2ccc3c(c2)OCO3)CC2(CCCC(COC(=O)NCC3CCCCC3)O2)O1 (stereo partly drawn)
### Response -0.443

###

experiment: MM1S myeloma cell viability, profiling panel, resazurin fluorescence, basal, 24 h, PK04 Diversity Set (AID 1174); conditions: higher = more signal, called active from +8 up or from −8 down;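 note: MM1S multiple myeloma cell line; test concentration not given here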
Below, each of the molecules is paired with its reported z-score value.
Write the number on its own, no unit after it.

# example entries with known answers
molecule=CO[C@H]1O[C@H](CO)[C@@H](OC(=O)Nc2ccc3c(c2)OCO3)[C@H](OC(=O)Nc2ccccc2-c2ccccc2)[C@@H]1OC(=O)Nc1ccccc1-c1ccccc1 reported=-0.443
molecule=COCCOC(=O)N1C(=O)[C@@]2(c3cc(C#CCNC(N)=O)ccc31)[C@H](c1ccccc1OCCO)N1[C@H](c3ccccc3)[C@H](c3ccccc3)OC(=O)[C@H]1[C@@H]2C(=O)N1CCN(c2ncccn2)CC1 reported=-0.0546
molecule=CC(CCC(=O)OC[C@H]1O[C@H](C#Cc2ccccc2)C=C[C@@H]1Oc1ccc(C)cc1)=NOC[C@@H](O)COCc1ccco1 reported=-1.39
molecule="COC(=O)[C@H](C)NC(=O)CCC1CC(OC(=O)NCCc2ccc(F)cc2)CC2(CCCC(COC(=O)NCCc3ccc(Cl)cc3)O2)O1 (some centres undefined)" reported=0.349
molecule=CC(C)CON=C1C[C@@H](O)[C@@H](O)[C@@H]2[C@@H]3C(=O)N(C[C@@H]4CCCO4)C(=O)[C@@H]3CC[C@H]12 reported=-0.594
molecule=O=C1C[C@]2(c3ccc([N+](=O)[O-])cc3)C(=O)N(CCN3CCOCC3)c3cc(CO)ccc3[C@H]2N1CC12CC3CC(CC(C3)C1)C2 reported=0.639

### Prompt # lookup: z-score of CC(C)C[C@@H]1NC(=O)[C@H]2C[C@@H](C(=O)NCCCCCCN(C)C)[C@@H](c3cccc(OCCO)c3)N2C1=O
### Response -0.891

### Prompt # lookup: z-score of c1ccc(C2NCCc3c2[nH]c2ccccc32)cc1 (centres undefined)
### Response -0.104

### Prompt # lookup: z-score of COCCCNC(=O)[C@@]1(C)c2ccccc2C(=O)N(Cc2ccc(OC(F)(F)F)cc2)[C@H]1c1ccc(CO)cc1
### Response -0.741

### Prompt # lookup: z-score of CCN1C(=O)[C@H]2[C@H]3[C@H](O)[C@H](O)CC(=NOCC=C(C)CCC=C(C)C)[C@H]3CC[C@H]2C1=O
### Response -0.944

### Prompt # lookup: z-score of CN1C(=O)C2C=CC(C(O)c3ccc(Br)cc3)N(N(c3ccccc3)c3ccccc3)C2C1=O (centres undefined)
### Response -1.19

###

test: anti-His antibody binders, primary screen, artefact control for SMM control protein annotation, biochemical, small-molecule microarray, 635 nm fluorescence (AID 1128); details: anti-His Alexa647 antibody binding, higher = more signal;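 note: score merges feature fluorescence with signal-to-noise for each printed compound spot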
reported-endpoint: composite z-score
Write the number on its own, no unit after it.

# example entries with known answers
compound=CC(C)=CCCC(C)=CCON=C1C[C@@H](O)[C@@H](O)[C@@H]2[C@@H]3C(=O)N(C[C@@H]4CCCO4)C(=O)[C@@H]3CC[C@@H]12 reported_endpoint="composite z-score" reported=0.875
compound=O=C1C[C@@H](O)[C@@H](O)[C@@H]2[C@@H]3C(=O)N(c4ccc(F)cc4F)C(=O)[C@@H]3CC[C@@H]12 reported_endpoint="composite z-score" reported=0.408
compound=O=C1[C@H]2[C@H]3[C@H](O)[C@H](O)CC(=NOCc4ccccc4)[C@H]3CC[C@H]2C(=O)N1C[C@@H]1CCCO1 reported_endpoint="composite z-score" reported=0.216

### Prompt # lookup: composite z-score of N#Cc1ccc(NN2C(C(O)c3cccc4ccccc34)C=CC3C(=O)N(c4ccccc4)C(=O)C32)cc1 (configuration not stated)
### Response 1.06

### Prompt # lookup: composite z-score of CCOC(=O)[C@H](CC(C)C)NC(=O)CCC1CC(OC(=O)NCc2cccc3ccccc23)CC2(CCCC(COC(=O)NCCc3ccccc3OC)O2)O1 (some centres not stated)
### Response 1.02

### Prompt # lookup: composite z-score of COc1ccccc1CN1C(=O)c2ccccc2[C@@H](C(=O)NCC(F)(F)F)[C@@H]1c1ccc(CO)cc1
### Response 0.218

### Prompt # lookup: composite z-score of CN(C)CCCNC(=O)[C@@H]1c2ccccc2C(=O)N(Cc2ccccc2)[C@H]1c1ccc(CO)cc1
### Response 0.514
